Target: HDAC6 (Homo sapiens, UniProt Q9UBN7)
Construct: Full length human recombinant HDAC6 protein was expressed in baculoviral system
Test: In vitro Histone Deacetylase Assay (enzymatic HDAC6 electrophoretic mobility shift assay)
Conditions: full length human recombinant HDAC6, 1 nM enzyme, 2 μM peptide substrate RHKK(Ac)-NH2, 25° C.; read-out: HDAC6 activity range
Below, each entry is listed with its recorded IC50.

* COc1cccc(CN2CC[C@@]3(CCc4cc(C(=O)NO)ccc4C3)C2=O)c1 [Compound I-77] | ≤ 100 nM
* COc1ccc(N2CC[C@]3(CCc4cc(C(=O)NO)ccc4C3)C2=O)cc1F [Compound I-90] | ≤ 100 nM
* COc1ccc(CN2CCC3(CCc4cc(C(=O)NO)ccc4O3)CC2)cc1 [II-1] | > 500 nM
* O=C(NO)c1ccc2c(c1)CC[C@]1(CCN(c3cccnc3)C1=O)C2 [Compound I-10] | ≤ 100 nM

Q: If you can, please state the reported IC50 value of COc1ncccc1N1CC[C@]2(CCc3cc(C(=O)NO)ccc3C2)C1=O [Compound I-145] .
Ans: ≤ 100 nM

Q: If you can, please state the reported IC50 value of O=C(NO)c1ccc2c(c1)CCC1(CC(=O)N(C3CC3)C1)C2 (single isomer, unassigned) [Compound I-214] .
Ans: ≤ 100 nM

----------
Target: HDAC6 (Homo sapiens)
Construct: Full length human recombinant HDAC6 protein was expressed in baculoviral system; made in house; host or cells: baculoviral system
Test: In vitro Histone Deacetylase Assay (enzymatic HDAC6 electrophoretic mobility shift assay)
Assay type: biochemical
Conditions: full length human recombinant HDAC6, 1 nM enzyme, 2 μM peptide substrate RHKK(Ac)-NH2, 25° C.; read-out: HDAC6 activity range
pIC50: −log10 of the molar value.
Below, each entry is listed with its recorded pIC50.

- CC(C)N1CCC2(CCc3cc(C(=O)NO)ccc3O2)C1=O (centres unmarked): < 6.30
- O=C(NO)c1ccc2c(c1)CCC1(CC(=O)N(CC3CCC3)C1)C2 (single isomer, unassigned): ≥ 7.00
- COCCN1CC[C@@]2(CCc3cc(C(=O)NO)ccc3C2)C1=O: 6.30 to 7.00
- O=C(NO)c1ccc2c(c1)CCC1(CCN(c3ccccc3)C1=O)S2(=O)=O (centres unmarked): 6.30 to 7.00
- O=C(NO)c1ccc2c(c1)CC[C@@]1(CCN(Cc3ccccn3)C1=O)C2: ≥ 7.00
- O=C(NO)c1ccc2c(c1)CC[C@@]1(CCNC1=O)C2: ≥ 7.00
- O=C(NO)c1ccc2c(c1)CC[C@]1(CCN(CC(F)(F)F)C1=O)C2: ≥ 7.00
- O=C(NO)c1ccc2c(c1)CC[C@]1(CCN(c3cncc(Cl)c3)C1=O)C2: ≥ 7.00
- O=C(NO)c1ccc2c(c1)CC[C@]1(CCN(Cc3cccc(Cl)c3)C1=O)C2: ≥ 7.00
- O=C(NO)c1ccc2c(c1)CCC1(CCN(C(=O)Nc3ccccc3)CC1)O2: 6.30 to 7.00

Q: If you can, please state the reported pIC50 value of "Cc1ccccc1CN1CC[C@]2(CCc3cc(C(=O)NO)ccc3C2)C1=O" .
Ans: ≥ 7.00

Q: If you can, please state the reported pIC50 value of "CC(C)CCN1CC[C@@]2(CCc3cc(C(=O)NO)ccc3C2)C1=O" .
Ans: 6.30 to 7.00

Q: If you can, please state the reported pIC50 value of "CC#CCN1CC[C@]2(CCc3cc(C(=O)NO)ccc3C2)C1=O" .
Ans: ≥ 7.00

Q: If you can, please state the reported pIC50 value of O=C(NO)c1ccc2c(c1)CC[C@@]1(CCCN(C3CC3)C1=O)C2 (single isomer, unassigned) .
Ans: ≥ 7.00

Q: If you can, please state the reported pIC50 value of "Cn1c(CN2CC[C@]3(CCc4cc(C(=O)NO)ccc4C3)C2=O)nc2ccccc21" .
Ans: ≥ 7.00

Q: If you can, please state the reported pIC50 value of "O=C(NO)c1ccc2c(c1)CC[C@@]1(CCN(c3cccc(F)c3)C1=O)C2" .
Ans: ≥ 7.00

Q: If you can, please state the reported pIC50 value of "Cc1ccc(N2CC[C@@]3(CCc4cc(C(=O)NO)ccc4C3)C2=O)c(C)c1" .
Ans: ≥ 7.00

----------
Target: HDAC6 (Homo sapiens)
Construct: Full length human recombinant HDAC6 protein was expressed in baculoviral system
Sequence (Q9UBN7 1-1215): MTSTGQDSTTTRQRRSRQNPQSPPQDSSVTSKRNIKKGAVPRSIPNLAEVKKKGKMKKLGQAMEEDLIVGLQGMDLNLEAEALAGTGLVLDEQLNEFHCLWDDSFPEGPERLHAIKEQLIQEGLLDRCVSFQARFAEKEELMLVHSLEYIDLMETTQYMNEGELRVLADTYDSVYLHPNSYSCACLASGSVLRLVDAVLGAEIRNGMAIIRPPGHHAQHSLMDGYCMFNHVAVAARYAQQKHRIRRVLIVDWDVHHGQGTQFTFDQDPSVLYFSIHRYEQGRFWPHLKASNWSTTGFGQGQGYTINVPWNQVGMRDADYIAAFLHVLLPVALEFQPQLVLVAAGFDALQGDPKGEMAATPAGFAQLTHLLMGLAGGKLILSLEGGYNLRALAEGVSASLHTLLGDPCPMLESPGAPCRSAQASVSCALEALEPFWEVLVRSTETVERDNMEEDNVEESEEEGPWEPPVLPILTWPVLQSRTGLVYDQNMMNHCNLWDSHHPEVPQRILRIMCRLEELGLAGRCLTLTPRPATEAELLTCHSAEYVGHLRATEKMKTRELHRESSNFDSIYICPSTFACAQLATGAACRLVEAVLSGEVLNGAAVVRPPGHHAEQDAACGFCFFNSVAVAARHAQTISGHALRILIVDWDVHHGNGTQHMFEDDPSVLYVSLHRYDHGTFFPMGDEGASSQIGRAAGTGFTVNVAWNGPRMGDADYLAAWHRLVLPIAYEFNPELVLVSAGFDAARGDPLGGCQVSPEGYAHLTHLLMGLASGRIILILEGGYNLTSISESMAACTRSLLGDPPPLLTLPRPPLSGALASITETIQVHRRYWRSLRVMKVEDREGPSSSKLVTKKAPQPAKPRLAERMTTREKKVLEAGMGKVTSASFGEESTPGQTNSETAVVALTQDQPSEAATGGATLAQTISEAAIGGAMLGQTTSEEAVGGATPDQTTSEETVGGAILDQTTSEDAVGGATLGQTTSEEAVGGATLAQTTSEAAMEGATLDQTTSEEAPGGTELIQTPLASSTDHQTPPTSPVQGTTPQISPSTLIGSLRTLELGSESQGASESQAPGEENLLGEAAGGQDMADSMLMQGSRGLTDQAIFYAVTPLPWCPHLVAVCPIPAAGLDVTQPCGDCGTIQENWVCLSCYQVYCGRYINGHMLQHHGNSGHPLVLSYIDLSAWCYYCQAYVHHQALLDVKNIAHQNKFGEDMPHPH
Experiment: In vitro Histone Deacetylase Assay (enzymatic HDAC6 electrophoretic mobility shift assay)
Settings: full length human recombinant HDAC6, 1 nM enzyme, 2 μM peptide substrate RHKK(Ac)-NH2, 25° C.; read-out: HDAC6 activity range
pIC50: −log10 of the molar value.
result-type: pIC50

Below are worked cases with known answers.
- O=C(NO)c1ccc2c(c1)CC[C@]1(CC(=O)N(c3ccncc3)C1)C2 [Compound I-228]: ≥ 7.00
- O=C(NO)c1ccc2c(c1)CCC1(CCCNC1=O)C2 (centres unmarked) [Compound I-177]: ≥ 7.00
- COc1ccc(N2CC[C@]3(CCc4cc(C(=O)NO)ccc4C3)C2=O)cn1 [Compound I-114]: ≥ 7.00

Let us examine a further case.
Q: If you can, please state the reported pIC50 value of O=C(NO)c1ccc2c(c1)CC[C@@]1(CCN(Cc3ccc4nonc4c3)C1=O)C2 [Compound I-70] .
Ans: ≥ 7.00

----------
Below, each entry is listed with its recorded IC50.
Target: HDAC6 (Homo sapiens)
Construct: Full length human recombinant HDAC6 protein was expressed in baculoviral system
Assay: In vitro Histone Deacetylase Assay (enzymatic HDAC6 electrophoretic mobility shift assay)
Details: full length human recombinant HDAC6, 1 nM enzyme, 2 μM peptide substrate RHKK(Ac)-NH2, 25° C.; read-out: HDAC6 activity range

- O=C(NO)c1ccc2c(c1)CC[C@]1(CCN(Cc3cccc(F)c3)C1=O)C2: ≤ 100 nM
- COc1ccc(N2CC[C@@]3(CCc4cc(C(=O)NO)ccc4C3)C2=O)c(F)c1: ≤ 100 nM
- O=C(NO)c1ccc2c(c1)CCC1(CCCN(CC3COC3)C1=O)C2 (single isomer, unassigned) [Compound I-196]: ≤ 100 nM
- CCN1CCCC2(CCc3cc(C(=O)NO)ccc3C2)C1=O (single isomer, unassigned) [Compound I-184]: ≤ 100 nM
- O=C(NO)c1ccc2c(c1)CCC1(CCN(CC3CCCCC3)C1=O)C2 (stereo not drawn): 100 to 500 nM
- O=C(NO)c1ccc2c(c1)CC[C@@]1(CCN(c3ccncc3Cl)C1=O)C2: ≤ 100 nM
- O=C(NO)c1ccc2c(c1)CC[C@@]1(CCN(c3ccccc3F)C1=O)C2: ≤ 100 nM
- COc1cccc(N2CC[C@]3(CCc4cc(C(=O)NO)ccc4C3)C2=O)c1F: ≤ 100 nM

Q: If you can, please state the reported IC50 value of "COc1cc(N2CC[C@@]3(CCc4cc(C(=O)NO)ccc4C3)C2=O)ccc1F" .
Ans: ≤ 100 nM

Q: If you can, please state the reported IC50 value of "O=C(NO)c1ccc2c(c1)CC[C@]1(CCN(c3cccc(F)c3F)C1=O)C2" .
Ans: ≤ 100 nM

Q: If you can, please state the reported IC50 value of CC(C)N1CCCC2(CCc3cc(C(=O)NO)ccc3C2)C1=O (single isomer, unassigned) [Compound I-191] .
Ans: ≤ 100 nM

Q: If you can, please state the reported IC50 value of O=C(NO)c1ccc2c(c1)CC[C@]1(CCCN(c3ccccc3)C1=O)C2 (single isomer, unassigned) .
Ans: ≤ 100 nM

Q: If you can, please state the reported IC50 value of "O=C(NO)c1ccc2c(c1)CC[C@]1(CCN(Cc3ccccc3)C1=O)C2" .
Ans: ≤ 100 nM

Q: If you can, please state the reported IC50 value of "CC(C)CCN1CC[C@]2(CCc3cc(C(=O)NO)ccc3C2)C1=O" .
Ans: ≤ 100 nM

Q: If you can, please state the reported IC50 value of "O=C(NO)c1ccc2c(c1)CC[C@@]1(CCN(Cc3ccccc3)C1=O)C2" .
Ans: ≤ 100 nM

Q: If you can, please state the reported IC50 value of "O=C(NO)c1ccc2c(c1)CC[C@@]1(CCN(c3cncc(F)c3)C1=O)C2" .
Ans: ≤ 100 nM

Q: If you can, please state the reported IC50 value of "O=C(NO)c1ccc2c(c1)CC[C@]1(CCNC1=O)C2" .
Ans: ≤ 100 nM

Q: If you can, please state the reported IC50 value of "COCCN1CC[C@]2(CCc3cc(C(=O)NO)ccc3C2)C1=O" .
Ans: ≤ 100 nM

Q: If you can, please state the reported IC50 value of "O=C(NO)c1ccc2c(c1)CC[C@@]1(CCN(CC3CCC3)C1=O)C2" .
Ans: 100 to 500 nM

Q: If you can, please state the reported IC50 value of "CCN1CC[C@]2(CCc3cc(C(=O)NO)ccc3C2)C1=O" .
Ans: ≤ 100 nM

Q: If you can, please state the reported IC50 value of "COc1cc(N2CC[C@]3(CCc4cc(C(=O)NO)ccc4C3)C2=O)ccc1F" .
Ans: ≤ 100 nM

Q: If you can, please state the reported IC50 value of "O=C(NO)c1ccc2c(c1)CC[C@@]1(CCN(Cc3cccc(Cl)c3)C1=O)C2" .
Ans: ≤ 100 nM

Q: If you can, please state the reported IC50 value of "N#Cc1cccc(N2CC[C@@]3(CCc4cc(C(=O)NO)ccc4C3)C2=O)c1" .
Ans: ≤ 100 nM

Q: If you can, please state the reported IC50 value of O=C(NO)c1ccc2c(c1)CCC1(CCN(c3cccnc3)C1=O)S2(=O)=O (stereo not drawn) .
Ans: 100 to 500 nM

Q: If you can, please state the reported IC50 value of CC(C)N1CC2(CCc3cc(C(=O)NO)ccc3C2)CC1=O (single isomer, unassigned) [Compound I-213] .
Ans: ≤ 100 nM

Q: If you can, please state the reported IC50 value of O=C(NO)c1ccc2c(c1)CCC1(CCN(c3cccnc3)C1=O)O2 (stereo not drawn) .
Ans: 100 to 500 nM

Q: If you can, please state the reported IC50 value of "O=C(NO)c1ccc2c(c1)CC[C@@]1(CCN(c3ccc(F)cc3)C1=O)C2" .
Ans: ≤ 100 nM

Q: If you can, please state the reported IC50 value of "CC(C)N1CC[C@]2(CCc3cc(C(=O)NO)ccc3C2)C1=O" .
Ans: ≤ 100 nM
